Target: (NANP)6 (Plasmodium falciparum)
Assay: BLI, target on sensor
ASSAY METRIC: Kd
Number plus unit, in that order.

>>> result("AB-007064 (antibody, V domains shown) VH: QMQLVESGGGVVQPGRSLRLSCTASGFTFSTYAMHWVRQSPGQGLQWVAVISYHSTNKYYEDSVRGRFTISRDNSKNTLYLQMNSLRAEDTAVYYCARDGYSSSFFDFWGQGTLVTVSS VL: DIQMTQSPSTLSASVGDRVAITCRASQSISRWLAWYQQQPGKAPKLLMTGASVLESGVPSRFSGSGSGTEFTLTISSLQPDDFATYYCQHYNSYFVTFGQGTKVEIK")
"434 pM"

Return reported Kd values for all items listed beneath this line.
1. AB-007071 (antibody, V domains shown) VH: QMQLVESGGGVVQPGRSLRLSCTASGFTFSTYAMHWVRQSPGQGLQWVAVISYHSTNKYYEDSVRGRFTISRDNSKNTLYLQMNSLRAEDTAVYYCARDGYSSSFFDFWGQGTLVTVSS VL: DIQMTQSPSTLSASVGDRVAITCRASQSISRWLAWYQQQPGKAPKLLMSGASSLESGVPSRFSGSGSGTEFTLTISSLQPDDFATYYCQHYNSYFVTFGQGTKVEIK
2. AB-007056 (antibody, V domains shown) VH: QMQLVESGGGVVQPGRSLRLSCTASGFTFSTYAMHWVRQSPGQGLQWVAVISYHSTNKYYEDSVRGRFTISRDNSKNTLYLQMNSLRAEDTAVYYCARDGYQSSFFDFWGQGTLVTVSS VL: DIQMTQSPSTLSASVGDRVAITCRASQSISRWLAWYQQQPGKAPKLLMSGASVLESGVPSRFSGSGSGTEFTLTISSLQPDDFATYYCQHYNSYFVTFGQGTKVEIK

[reply]
1660 pM
880 pM
